Values were extracted from paper PMC6792352.

assay: in vitro; conditions: rat, gh3-tre-luc cells, AC50 (uM) modified / 1000
Structures can show the parent of a compound that is named as a salt.
Measured CC50 at 24 h, listed per entry.

Past entries and their recorded results:
[[record]]
compound = "Cc1c(F)c(N2CCNC(C)C2)cc2c1c(=O)c(C(=O)O)cn2C1CC1 (stereo not drawn) [Grepafloxacin hydrochloride]"
readout_value = "> 50 µM"

[[record]]
compound = "CN/C(=C\\[N+](=O)[O-])NCCSCc1ccc(CN(C)C)o1"
readout_value = "> 90 µM"

[[record]]
compound = "COc1ccc(-c2cc(=O)c3c(O)cc(O[C@@H]4O[C@H](CO[C@@H]5O[C@@H](C)[C@H](O)[C@@H](O)[C@H]5O)[C@@H](O)[C@H](O)[C@H]4O)cc3o2)cc1O"
readout_value = "> 50 µM"

[[record]]
compound = "Oc1ccccc1"
readout_value = "> 50 µM"

[[record]]
compound = "CC1OCCC1=O (stereo not drawn) [2-Methyldihydrofuran-3(2H)-one]"
readout_value = "> 90 µM"


Could you share which CC50 at 24 h value was measured for c1ccc2c(c1)CCCC2C1=NCCN1 (stereo not drawn) [Tetrahydrozoline hydrochloride] ? > 50 µM

Give the measured CC50 at 24 h of C=CC(=O)OCCC#N [2-Cyanoethyl prop-2-enoate] . > 90 µM

Which value of CC50 at 24 h has been reported for O=NN1CCNCC1 in the records? > 100 µM

Please give the measured CC50 at 24 h for this compound: COS(=O)(=O)C(F)(F)F [Methyl trifluoromethanesulfonate] > 100 µM

Name the reported CC50 at 24 h value associated with the compound NC[C@H]1CC[C@H](C(=O)O)CC1 > 20 µM

Endpoint output: CC50 at 24 h of CN(C)C1CCCCC1 . Value? > 90 µM

Please give the measured CC50 at 24 h for this compound: CCCCOC(=O)c1ccccc1 [Butyl benzoate] > 90 µM

Look up CC50 at 24 h: c1ccc2c(c1)[nH]c1ccccc12 > 90 µM

Using the record for O=C(NC1CCN(CCc2c[nH]c3ccccc23)CC1)c1ccccc1 [Indoramin hydrochloride] , report its CC50 at 24 h. 22.2 µM

Query (compound): CC(C)(O)Cc1ccccc1 ; field requested: CC50 at 24 h > 90 µM

What does the record list as CC50 at 24 h for C=CC[N+]1([C@H]2C[C@H]3[C@@H]4CC[C@H]5C[C@H](OC(C)=O)[C@@H](N6CCCCC6)C[C@]5(C)[C@H]4CC[C@]3(C)[C@H]2OC(=O)CC)CCCCC1 [Rapacuronium bromide] ? > 50 µM

Which CC50 at 24 h is listed for CC(=O)OCC(=O)[C@H]1CC[C@H]2[C@@H]3CCC4=CC(=O)CC[C@]4(C)[C@H]3CC[C@]12C [Deoxycorticosterone acetate] ? > 50 µM

I am curious: what CC50 at 24 h value has been reported for CC(C)(C)OO ? > 90 µM

---

assay: in vitro; conditions: rat, gh3-tre-luc cells, AC50 (uM) modified / 1000, Tox21_110001=Tox21_200991; viability, 1 nM T3 present, 24 h
METRIC: CC50 at 24 h

CC50 at 24 h for N#C/C(N)=C(/N)C#N ? > 90 µM
